System: Hep 3B cells
METHOD: MTT cell viability assay, Hep 3B cells (serum-free DMEM)
MEASUREMENT SETUP: Homo sapiens, Hep3B, 96 h, read-out: IC50 (cell viability), 96 hr
QUANTITY KIND: IC50 (nM)

INSERT INTO measurements (given_smiles, uom, observed_result) VALUES
  ('CC[C@H](C)C(=O)O[C@H]1C[C@@H](C)C=C2C=C[C@H](C)[C@H](CC[C@@H]3C[C@@H](O)CC(=O)O3)[C@H]21', 'nM', 5900),
  ('CC(=O)O[C@H]1C(=O)[C@@]2(C)[C@H]([C@H](OC(=O)c3ccccc3)[C@]3(O)C[C@H](OC(=O)[C@H](O)[C@@H](NC(=O)c4ccccc4)c4ccccc4)C(C)=C1C3(C)C)[C@]1(OC(C)=O)CO[C@@H]1C[C@@H]2O', 'nM', 28.2);

----------
METHOD: MTT cell viability assay, Hep G2 cells (serum-free DMEM)
MEASUREMENT SETUP: human, Hep G2 cells, Cell viability, no lovastatin 72 hr, then taxol 2 nM 48 hr
QUANTITY KIND: viability at 48 h, 2 nM (%)

INSERT INTO measurements (given_smiles, quantity_kind, observed_result) VALUES
  ('CC(=O)O[C@H]1C(=O)[C@@]2(C)[C@H]([C@H](OC(=O)c3ccccc3)[C@]3(O)C[C@H](OC(=O)[C@H](O)[C@@H](NC(=O)c4ccccc4)c4ccccc4)C(C)=C1C3(C)C)[C@]1(OC(C)=O)CO[C@@H]1C[C@@H]2O', 'viability at 48 h, 2 nM', 85.1);

----------
METHOD: MTT cell viability assay, Hep G2 cells (serum-free DMEM)
MEASUREMENT SETUP: human, Hep G2 cells, Cell viability, no lovastatin 48 hr, then CAO 5 μM 48 hr
QUANTITY KIND: viability at 48 h, 5 μM (%)

INSERT INTO assay_data (given_smiles, quantity_kind, observed_result) VALUES
  ('CCCCCCCCOC(=O)/C=C/c1ccc(O)c(O)c1', 'viability at 48 h, 5 μM', 42.8);

----------
METHOD: in vitro
MEASUREMENT SETUP: human, Cell viability
QUANTITY KIND: viability at 72 hr, 10 μM (%)

INSERT INTO assay_data (given_smiles, observed_result) VALUES
  ('O=C(/C=C/c1ccc(O)c(O)c1)OCCc1ccccc1', 21.2);

----------
METHOD: MTT cell viability assay, Hep G2 cells (serum-free DMEM)
MEASUREMENT SETUP: human, Hep G2 cells, Cell viability, LOV 5 μM, 72 hr
QUANTITY KIND: viability at 72 h, 5 μM

INSERT INTO assay_data (molecule, observed_result) VALUES
  ('CC[C@H](C)C(=O)O[C@H]1C[C@@H](C)C=C2C=C[C@H](C)[C@H](CC[C@@H]3C[C@@H](O)CC(=O)O3)[C@H]21 [Lovastatin, lovastatin]', '80.9%');

----------
METHOD: MTT cell viability assay, Hep G2 cells (serum-free DMEM)
MEASUREMENT SETUP: human, Hep G2 cells, Cell viability, taxol 1000 nM, 48 hr
QUANTITY KIND: viability at 48 h, 1000 nM

INSERT INTO measurements (given_smiles, observed_result) VALUES
  ('CC(=O)O[C@H]1C(=O)[C@@]2(C)[C@H]([C@H](OC(=O)c3ccccc3)[C@]3(O)C[C@H](OC(=O)[C@H](O)[C@@H](NC(=O)c4ccccc4)c4ccccc4)C(C)=C1C3(C)C)[C@]1(OC(C)=O)CO[C@@H]1C[C@@H]2O', '15%');
